# key: entry, value: EC50
- Method summary: Trypanosoma cruzi growth suppression in host cells – NIH3T3 host cells, beta-gal luminescence, confirmation (AID 2044);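 also: intracellular parasites grown in NIH/3T3 mouse fibroblasts as host cells; luminescent beta-galactosidase reporter signal from transgenic T. cruzi replicating inside host cells; inhibitors lower the luminescence signal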
- Format: functional, cell-based
Active and inactive are the calls of the source.

# Molecule, EC50
records = [
    ("CCN(CC1CCCN(CCc2cccc(OC)c2)C1)C(=O)c1ccc(COC)o1 (stereo not given)", "0.445 µM (active)"),
    ("O=C(c1cc(COc2ccc(F)cc2Cl)on1)N(Cc1ccncc1)CC1CCCO1 (stereo not given)", "0.956 µM (active)"),
    ("CCc1nnc(S)n1/N=C/c1cc(OC)cc([N+](=O)[O-])c1O", "0.815 µM (active)"),
    ("Oc1ccc(-c2nccc(-c3ccc(Cl)cc3Cl)n2)cc1", "1.62 µM (active)"),
    ("CCCC(C)C(=O)Nc1ncc(S(=O)(=O)c2ccc([N+](=O)[O-])cc2)s1 (stereo not given)", "2.25 µM (active)"),
]

---

- Measurement target: Prothrombin (Homo sapiens, UniProt P00734)
- Method summary: Thrombin 1536 HTS Dose Response Confirmation. [Related pubchem assays: 1046 (Thrombin 1536 HTS; hits were confirmed in this assay)]
- Assay type: functional

# Compound, IC50
data = [
    ("Cc1ccc(OCC(=O)N2CCC(N3CCCCCC3)CC2)cc1", "> 50 µM (not active)"),
    ("Cc1ccc(N2CC(C(=O)N/N=C/c3cccc([N+](=O)[O-])c3)CC2=O)cc1 (stereo not given)", "> 50 µM (not active)"),
    ("CCn1c(SCC(N)=O)nnc1C(C)C", "> 50 µM (not active)"),
    ("O=C(Nc1ccc(N2CCOCC2)cc1)C1CCN(S(=O)(=O)c2ccccc2F)CC1", "> 50 µM (not active)"),
    ("O=C(CSc1nnc(-c2ccccc2)c(-c2ccccc2)n1)Nc1ccc(Br)cn1", "> 50 µM (inconclusive)"),
]

---

# key: entry, value: EC50
- Method summary: viability of HCT116 lacking mutant beta-catenin – cell-based, human colon tumor, dose response (AID 1045);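 also: HCT116 colon tumor cells with beta catenin knocked out; cells exposed to compound for 60 hours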
- Format: functional
The source made the active and inactive calls.
Attribute measured: EC50

# Molecule, Observed result
measured = [
    ("COc1ccccc1-c1cc(C(F)(F)F)nc(S(=O)(=O)CCCC(=O)N2CCOCC2)n1", "34.4 µM (active)"),
    ("CN1C(=O)/C(=C2\\SC(N)=NC2=O)c2ccccc21", "44.1 µM (active)"),
    ("Cc1csc(NC(=O)NC2(C(F)(F)F)Oc3ccccc3O2)n1", "21.9 µM (active)"),
    ("OC(CNCc1ccco1)Cn1c2ccc(Br)cc2c2cc(Br)ccc21 (centres undefined)", "8.59 µM (active)"),
]

---

- Measurement target: CAAX prenyl protease 2 (Homo sapiens, UniProt Q9Y256)
- Sequence (Q9Y256 whole entry): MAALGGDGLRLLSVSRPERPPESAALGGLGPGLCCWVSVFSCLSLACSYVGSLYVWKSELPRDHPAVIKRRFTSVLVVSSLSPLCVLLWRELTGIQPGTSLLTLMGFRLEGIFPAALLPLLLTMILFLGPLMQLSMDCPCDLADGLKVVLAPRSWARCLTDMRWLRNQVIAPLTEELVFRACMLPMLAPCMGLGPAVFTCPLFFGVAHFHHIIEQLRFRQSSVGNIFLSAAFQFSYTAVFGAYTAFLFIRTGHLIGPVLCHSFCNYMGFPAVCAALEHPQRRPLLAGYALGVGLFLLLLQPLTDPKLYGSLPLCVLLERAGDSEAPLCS
- Method summary: inhibition of Ras-converting CAAX protease Rce1 – biochemical, yeast membranes, quenched-peptide fluorescence, cherry-pick, dose response (AID 588849)
Active and inactive are the calls of the source.
Outcome codes: 1 = active, 0 = inactive

# Compound, Discrete label
data = [
    ("O=C(/C=C/c1cn(-c2ccccc2)nc1-c1cccs1)NCCN1CCOCC1", 0),
    ("O=C(Cn1c2ccccc2c(=O)c2ccccc21)Nc1ccccc1F", 1),
    ("CC(C)OCCCNC(=O)c1c(N)n(CC2CCCO2)c2nc3ccccc3nc12 (centres undefined)", 1),
    ("COC(=O)Cc1c(C)c2ccc(OCc3nn[nH]n3)c(C)c2oc1=O", 1),
]
